- tgt: HIV-integrase (Human immunodeficiency virus type 1 group M subtype B)
- Construct: Recombinant integrase (0.26 ng) was incubated with the beads
- protocol.description: in-vitro activity against HIV-integrase (HIV Integrase Inhibition, SPA bead assay)
- Type: biochemical
- measurement.context: Table 1; recombinant integrase, activity class
pIC50: −log10 of the molar value.
measurement.type: pIC50

q: Specify measured pIC50 for CS(=O)(=O)c1cc(F)ccc1CNC(=O)c1nc2n(c(=O)c1O)CCOC21CCOCC1 .
a: 8.00 to 9.00

q: Give pIC50 for the following compound: O=C(NCc1ccc(F)cc1)c1nc2n(c(=O)c1O)CCOC21CCOCC1
a: 8.00 to 9.00

q: Kindly indicate its recorded pIC50. Item: O=C(NCc1ccc(Cl)c(Cl)c1)c1nc2n(c(=O)c1O)CCCC21CCC1
a: 8.00 to 9.00

q: Provide only the value of recorded pIC50 for CS(=O)(=O)c1cc(F)ccc1CNC(=O)c1nc2n(c(=O)c1O)CCOC21CCOC1 (centres unmarked)
a: 7.00 to 8.00

q: Read the entry O=C(NCc1ccccc1N1CCCCS1(=O)=O)c1nc2n(c(=O)c1O)CCCC21CCCC1 and write its reported pIC50.
a: 7.00 to 8.00

q: Report measured pIC50; entry is CN(C)S(=O)(=O)c1cc(F)ccc1CNC(=O)c1nc2n(c(=O)c1O)CCC21CCCC1
a: 7.00 to 8.00

q: Give reported pIC50 value for CN(C)S(=O)(=O)c1cc(F)ccc1CNC(=O)c1nc2n(c(=O)c1O)CCOC21CCOCC1
a: 7.00 to 8.00

q: Specify measured pIC50 for O=C(NCc1ccc(F)cc1-n1cncn1)c1nc2n(c(=O)c1O)CCCC21CCC1 .
a: 8.00 to 9.00

----------
Provide the recorded melting point for the entries that follow.

q: State its melting point for this compound: CS(=O)(=O)c1cc(F)ccc1CNC(=O)c1nc2n(c(=O)c1O)CCCOC21CCOCC1
a: 257 °C (dec.)

q: Fill in melting point for record COP(=O)(OC)c1cc(F)ccc1CNC(=O)c1nc2n(c(=O)c1O)CCCOC21CCOCC1
a: 234 °C (dec.)

q: In one line, give reported melting point of the entry Cc1ncnn1-c1cc(F)ccc1CNC(=O)c1nc2n(c(=O)c1O)CCCOC21CCOCC1 .
a: 204 °C

q: Hello, please tell me recorded melting point for this one: O=C(NCc1ccc(F)cc1-n1ccnn1)c1nc2n(c(=O)c1O)CCCOC21CCOCC1
a: 239 °C (dec.)

----------
- tgt: HIV-integrase (Human immunodeficiency virus type 1 group M subtype B, UniProt P04585)
- Construct: Recombinant integrase (0.26 ng) was incubated with the beads
- protocol.description: in-vitro activity against HIV-integrase (HIV Integrase Inhibition, SPA bead assay)
- Type: biochemical
- measurement.context: Table 1; recombinant integrase, activity class
pIC50: −log10 of the molar value.
What pIC50 was measured for each of the following?

q: Please report pIC50 for the following molecule: O=C(NCc1ccc(F)cc1N1CCCCS1(=O)=O)c1nc2n(c(=O)c1O)CCOC21CCC1 [Example 55]
a: 8.00 to 9.00

q: Entry Cc1ccc(CNC(=O)c2nc3n(c(=O)c2O)CCOC32CCCC2)cc1 [Example 19] needs its pIC50 filled in; supply it.
a: 7.00 to 8.00

q: // Input: O=C(NCc1ccccc1N1CCCCS1(=O)=O)c1nc2n(c(=O)c1O)CCOC21CCCC1 [Example 35] . Output its pIC50 only.
a: 7.00 to 8.00

q: Please look at this molecule and report its pIC50: O=C(NCc1cc(F)ccc1-n1cncn1)c1nc2n(c(=O)c1O)CCOC21CCCC1 [Example 29]
a: 8.00 to 9.00

q: Please indicate pIC50 recorded for CN(C)S(=O)(=O)c1cc(F)ccc1CNC(=O)c1nc2n(c(=O)c1O)CCCC21CCCC1 [Example 10]
a: 8.00 to 9.00

q: Name the recorded pIC50 of the molecule listed here: O=C(NCc1cccc(F)c1)c1nc2n(c(=O)c1O)CCOC21CCCC1 [Example 26]
a: 7.00 to 8.00

q: Return pIC50 (reported value) for this molecule: O=C(NCc1cc(F)ccc1F)c1nc2n(c(=O)c1O)CCCC21CCC1 [Example 75]
a: 7.00 to 8.00

q: Return the recorded pIC50 value; entry: O=C(NCc1ccc(F)cc1)c1nc2n(c(=O)c1O)CCOC21CCC1 [Example 52]
a: 8.00 to 9.00
